# Tested on: rabbits
# procedureText: In vivo neuromuscular block and cardiovascular side effects, rabbit (Example 8, Table 7)
# runParameters: Oryctolagus cuniculus, intravenous dose causing 50% neuromuscular block, read-out: ED50
This listing pairs compounds with measured ED50.

# compound, displayUnit, ED50
rows = [
    ("COc1cc(C[N+]2(C)[C@@H]3CC[C@H]2C[C@@H](OC(=O)CCCCCCCCCC(=O)O[C@H]2C[C@H]4CC[C@@H](C2)[N+]4(C)Cc2cc(OC)c(OC)c(OC)c2)C3)cc(OC)c1OC.[Br-].[Br-] (stereo partly drawn)", "mg/kg", 0.07),
    ("CCC(=O)Oc1ccc(C[N+]2(C)[C@@H]3CC[C@H]2C[C@@H](OC(=O)C2CCC2C(=O)O[C@H]2C[C@H]4CC[C@@H](C2)[N+]4(C)Cc2ccc(OC(=O)CC)c(OC(=O)CC)c2)C3)cc1OC(=O)CC.[Br-].[Br-] (stereo partly drawn)", "mg/kg", 0.128),
    ("COc1ccc(CC2c3cc(OC)c(OC)cc3CC[N+]2(C)CCC(=O)OCCCCCOC(=O)CC[N+]2(C)CCc3cc(OC)c(OC)cc3C2Cc2ccc(OC)c(OC)c2)cc1OC (stereo not drawn) [Atracurium, reference compound]", "mg/kg", 0.03),
]

====

This listing pairs compounds with measured Onset.
# System: anesthetized rats (evoked responses of anterior tibial muscle)
# procedureText: Muscle relaxant (neuromuscular blocking) properties, anesthetized rat (Example 9, Table 9)
# runParameters: rat; time to 80-85% neuromuscular block
measuredQuantity: Onset

# compound, measuredQuantity, readoutValue
rows = [
    ("CC(=O)Oc1ccc(C[N+](C)(C)C2CCC(OC(=O)CCCC(=O)OC3CCC([N+](C)(C)Cc4ccc(OC(C)=O)c(OC(C)=O)c4)CC3)CC2)cc1OC(C)=O.[Br-].[Br-] (stereo not shown)", "Onset", "0.75 (0.05) min"),
    ("CC(=O)Oc1ccc(C[N+](C)(C)C2CCC(OC(=O)/C=C/C(=O)OC3CCC([N+](C)(C)Cc4ccc(OC(C)=O)c(OC(C)=O)c4)CC3)CC2)cc1OC(C)=O.[Br-].[Br-] (stereo not shown)", "Onset", "1.3 (0.1) min"),
    ("C=CC[N+]1([C@H]2C[C@H]3[C@@H]4CC[C@H]5C[C@H](O)[C@@H](N6CCOCC6)C[C@]5(C)[C@H]4CC[C@]3(C)[C@H]2OC(C)=O)CCCC1 [Rocuronium, reference compound]", "Onset", "0.95 min"),
    ("COc1cc(C[N+](C)(C)C2CCC(OC(=O)CCCC(=O)OC3CCC([N+](C)(C)Cc4ccc(OC(C)=O)c(OC)c4)CC3)CC2)ccc1OC(C)=O.[Br-].[Br-] (stereo not shown)", "Onset", "0.84 (0.06) min"),
]

====

# System: anesthetized rats (evoked responses of anterior tibial muscle)
# procedureText: In vivo neuromuscular block and cardiovascular side effects, anesthetized rat (Example 8, Table 3)
# runParameters: rat; at 80-85% neuromuscular blocking dose

# compound, VB (vagal block) / %
measured = [
    ("C[N+]1(Cc2ccccc2)[C@@H]2CC[C@H]1C[C@@H](OC(=O)CCCC(=O)O[C@H]1C[C@H]3CC[C@@H](C1)[N+]3(C)Cc1ccccc1)C2.[Br-].[Br-] (some centres unmarked) [reference compound]", 100),
    ("CC(=O)Oc1ccc(C[N+]2(C)[C@@H]3CC[C@H]2C[C@@H](OC(=O)C2CCC2C(=O)O[C@H]2C[C@H]4CC[C@@H](C2)[N+]4(C)Cc2ccc(OC(C)=O)c(OC(C)=O)c2)C3)cc1OC(C)=O.[Br-].[Br-] (some centres unmarked)", 5),
    ("COc1ccc(OC)c(C[N+]2(C)C3CCC2CC(OC(=O)C2C4C=CC(C4)C2C(=O)OC2CC4CCC(C2)[N+]4(C)Cc2cc(OC)ccc2OC)C3)c1.[Br-].[Br-] (centres unmarked)", 32),
    ("CCC(=O)Oc1c(OC)cc(C[N+]2(C)[C@@H]3CC[C@H]2C[C@@H](OC(=O)C2CCCC(C(=O)O[C@H]4C[C@H]5CC[C@@H](C4)[N+]5(C)Cc4cc(OC)c(OC(=O)CC)c(OC)c4)C2)C3)cc1OC.[Br-].[Br-] (some centres unmarked)", 0),
    ("CC(=O)Oc1ccc(C[N+]2(C)C3CCC2CC(OC(=O)C2C4C=CC(C4)C2C(=O)OC2CC4CCC(C2)[N+]4(C)Cc2ccc(OC(C)=O)c(OC(C)=O)c2)C3)cc1OC(C)=O.[Br-].[Br-] (stereo not drawn) [bis[N-(3,4-diacetoxybenzyl)tropanium-3β-yl]trans-3,6-endomet]", 45),
]

====

# Tested on: dogs
# procedureText: animal or person
# Assay type: in vivo
# runParameters: dog; spontaneous recovery, 25-75% neuromuscular response
measuredQuantity: RI (recovery index)

# molecule, readoutValue
data = [
    ("CC(=O)Oc1ccc(C[N+]2(C)C3CCCC2CC(OC(=O)C2CCC2C(=O)OC2CC4CCCC(C2)[N+]4(C)Cc2ccc(OC(C)=O)c(OC(C)=O)c2)C3)cc1OC(C)=O.[Br-].[Br-] (centres unmarked)", "0.7 min"),
    ("COc1cc(C[N+]2(C)C3CCC2CC(OC(=O)C2C4C=CC(C4)C2C(=O)OC2CC4CCC(C2)[N+]4(C)Cc2ccc(OC(C)=O)c(OC)c2)C3)ccc1OC(C)=O.[Br-].[Br-] (centres unmarked)", "0.5 min"),
    ("CC(=O)Oc1ccc(C[N+]2(C)[C@@H]3CC[C@H]2C[C@@H](OC(=O)CCCC(=O)O[C@H]2C[C@H]4CC[C@@H](C2)[N+]4(C)Cc2ccc(OC(C)=O)c(OC(C)=O)c2)C3)cc1OC(C)=O.[Br-].[Br-] (some centres unmarked)", "0.6 min"),
    ("CC(=O)Oc1ccc(C[N+]2(C)C3CCCC2CC(OC(=O)CCCC(=O)OC2CC4CCCC(C2)[N+]4(C)Cc2ccc(OC(C)=O)c(OC(C)=O)c2)C3)cc1OC(C)=O.[Br-].[Br-] (centres unmarked)", "0.6 min"),
    ("CC(=O)Oc1ccc(C[N+]2(C)[C@@H]3CC[C@H]2C[C@@H](OC(=O)C2CCCC(C(=O)O[C@H]4C[C@H]5CC[C@@H](C4)[N+]5(C)Cc4ccc(OC(C)=O)c(OC(C)=O)c4)C2)C3)cc1OC(C)=O.[Br-].[Br-] (some centres unmarked)", "0.55 min"),
]

====

# System: anesthetized rats (evoked responses of anterior tibial muscle)
# procedureText: In vivo neuromuscular block and cardiovascular side effects, anesthetized rat (Example 8, Table 3)
# runParameters: rat, in vivo
# Experimental: The neuromuscular blocking activity and other effects (e.g. cardiovascular side effects) of selected agents were investigated on several different experimental animals. […] a) Adult, male albino rats were anesthetized with pentobarbital injected intraperitoneally. […] The intensity, onset, and duration of neuromuscular block and its type were determined with each agent. Through administering several doses, the doses corresponding to 50%, 80% and 90% neuromuscular block were determined. […]
This listing pairs compounds with measured VB (vagal block).

# compound, VB (vagal block) [%]
rows = [
    ("COc1cc(C[N+]23CCC(CC2)C(OC(=O)[C@@H]2[C@@H](C(=O)OC4C[N+]5(Cc6ccc(OC(C)=O)c(OC)c6)CCC4CC5)[C@H]4C=C[C@@H]2C4)C3)ccc1OC(C)=O.[Br-].[Br-] (relative stereo)", 70),
    ("CCC(=O)Oc1ccc(C[N+]2(C)C3CCCC2CC(OC(=O)CCCCC(=O)OC2CC4CCCC(C2)[N+]4(C)Cc2ccc(OC(=O)CC)c(OC(=O)CC)c2)C3)cc1OC(=O)CC.[Br-].[Br-] (stereo not drawn)", 0),
    ("CCC(=O)Oc1ccc(C[N+]2(C)C3CCCC2CC(OC(=O)CCCC(=O)OC2CC4CCCC(C2)[N+]4(C)Cc2ccc(OC(=O)CC)c(OC(=O)CC)c2)C3)cc1OC(=O)CC.[Br-].[Br-] (stereo not drawn)", 0),
]
